- System: nitrile hydratase of Rhodococcus sp. Cr4
- Assay type: biochemical
- experimental parameters: compound 1.0 mM; Free = 100; HMBN substrate, 20° C.
Record form. Attribute: Relative activity (%). Fill in for each entry.
Give the value in % but do not write % after it.

What the record says about N[C@@H]1CONC1=O : Relative activity (%) is 94.8

What the record says about O=C(O)c1cc[c]([Hg][Cl])cc1 [p-Chloromercuribenzoate] : Relative activity (%) is 97.7

What the record says about O[C@H](CS)[C@H](O)CS (racemic) : Relative activity (%) is 93.4

What the record says about NNc1ccccc1 [Phenylhydrazine] : Relative activity (%) is 8.19

What the record says about CCN1C(=O)C=CC1=O [N-Ethylmaleimide] : Relative activity (%) is 101

What the record says about NO [Hydroxylamine] : Relative activity (%) is 62.1

What the record says about O=S(=O)(O)c1cc(O)c(O)c(S(=O)(=O)O)c1 : Relative activity (%) is 132

What the record says about NC(N)=O : Relative activity (%) is 95.7
